Source: the array DNA melting data of Ke et al. (doi:10.1101/2024.01.08.574731)

test: melting temperature; fluorescence melt of hairpins on a sequencing array, two-state fit, raised by 9.35 °C to match UV melts; settings: sodium 0.088 M
Tm by entry:
The figure you give is taken to be in °C; do not add the unit.

Previously resolved entries follow.
sequenceRecord	resultUnits	Tm
GATACTGGAAACAGTATC (((((((....)))))))	°C	54.6
GTTAAGTCGAAAGACAAC (((..(((....))))))	°C	27.8
GAAGCCGAAAGGCCCTTC ((((((....)))..)))	°C	31.3

Enquiry: Input GGGAACACGAAAGTGCCC (((..(((....)))))) , output reported Tm.
Return: 45

Enquiry: Answer with the recorded Tm for the sequence listed here: AGCGTGAAAACGCT (((((....)))))
Return: 65.6

Enquiry: Please supply the value of reported Tm for the item GCCCACCGAAAGGTAGGC (((.(((....))).)))
Return: 55.5

Enquiry: Specify measured Tm for GAGGCCCGAAAGGGTCTC (((.(((....))).))) .
Return: 67.4

Enquiry: Tell us which Tm value is on record for GGCAGTTCGAAAGAAGCC (((..(((....))))))
Return: 34.5

Enquiry: Name the recorded Tm of the sequence listed here: GTGGCTCGAAAGAGACAC (((.(((....))).)))
Return: 68.9

Enquiry: Recall and state the measured Tm for GTAGGTGGAAACACCTAC (((((((....))))))) .
Return: 60.5

Enquiry: Tell us which Tm value is on record for GATCGAGCGTCGATC ((((((...))))))
Return: 51

###

assay: melting temperature; fluorescence melt of hairpins on a sequencing array, two-state fit, raised by 9.35 °C to match UV melts; conditions: sodium 0.088 M
quantityMeasured: Tm (°C)
Please reply with the bare figure in °C and do not write the unit itself.

Worked examples follow.
sequenceRecord	Tm / °C
GTCAGCGAAAGCTCGGAC ((((((....)))..)))	37.3
GACCAAGCGAAAGCTGTC (((..(((....))))))	37.2
GCCGAGCGAAAGCTTTGC ((..(((....)))..))	39.1
CGCCCGGAAACGGGGGCG ((((((....)))..)))	68.6
GCTAAGCGAAAGCATTGC ((.(.((....)).).))	36.2

Enquiry: Read the entry GCTTACGAAAGTATTAGC ((((((....)))..))) and write its reported Tm.
Return: 33.5

###

assay: folding enthalpy; higher = less favourable; fluorescence melt of hairpins on a sequencing array, two-state fit; settings: sodium 0.088 M
quantityMeasured: folding enthalpy (kcal/mol)
# number only, unit kcal/mol dropped from output

Worked examples follow.
sequenceRecord	quantityMeasured	observedValue
GCAAATGGAAACATTCGC ((.((((....)))).))	folding enthalpy	-28.5
GAATCTCCGAAAGGATTC (((..(((....))))))	folding enthalpy	-13.5
GATCTGGGATCAGATC ((((((....))))))	folding enthalpy	-40.7
GCCACGCGAAAGCCGGGC (((..((....))..)))	folding enthalpy	-24.1
GTGCAGGCGAAAGCCCAC (((..(((....))))))	folding enthalpy	-10.8
GTGGCGGGAAACTGCCGC (.(((.(....).))).)	folding enthalpy	-22.2
GGGCCCGAAAGGGTGCCC ((((((....)))..)))	folding enthalpy	-15.7
GCGTTCGAAAGAACTCGC ((((((....)))..)))	folding enthalpy	-17
TCTGAGAAATCAGA (((((....)))))	folding enthalpy	-11.1
GAGTGTACGAAAGTACTC (((..(((....))))))	folding enthalpy	-11.7

Enquiry: Fill in folding enthalpy for record GATCGGCATCCCGATC ((((((....))))))
Return: -40.9

Enquiry: Kindly indicate its recorded folding enthalpy. Item: GATCAACGAAAGTTTATC (((.(((....))).)))
Return: -28
